- System: OVCAR-4 ovarian
- ASSAY_TEXT: NCI-60 one-dose screen, 48 h (100 = growth as untreated, 0 = no growth, -100 = all killed)
- CONDITION_LABEL: 10 µM unless noted
Compounds without any hit were thinned out: in the full panel of roughly 83,000, 20% have a hit.
METRIC_NAME: growth (%)
Dear colleague, please return just the value in %, with no unit written.

COMPOUND	growth / %
O=C1CCC(C(=O)N/N=C/c2cc(F)ccc2F)N1 (stereo not given)	97.6
O=S(Nc1ccccc1)c1ccc(Cl)cc1 (stereo not given)	95.5
COc1ccc(C2[C@@H](c3ccccc3)C(=O)N2c2cc(OC)c(OC)c(OC)c2)cc1F (stereo not given in full)	59
CCOC(=O)c1c(NC(=O)c2ccccc2)sc2c3c(ccc12)OCN(C)C3	61.8
CSc1nc(-c2ccco2)c(C#N)c(=O)n1C	103
CC/C(=C(\c1ccc(Cl)cc1)c1ccc(OCCN2CCCCC2)cc1)c1ccc(O)cc1	36.7
CC(O)CNC(Cc1ccccc1)c1ccc2c(c1)OCO2 (stereo not given)	102
COC1C(O)CC(OC2CC(OC3CC(O[C@@H]4C(=O)c5c(cc6cc(OC7CC(OC8CC(O)C(O)C(C)O8)C(O)C(C)O7)c(C)c(O)c6c5O)CC4[C@H](OC)C(=O)O)OC(C)C3O)OC(C)C2O)OC1C (stereo not given in full)	44.8

Given CCOC(=O)C/C(=N\Nc1cc(=O)[nH]c2ccc(OC)cc12)C(=O)OCC , state its recorded growth.
101

Follow-up entry: Nc1c(C(=O)Nc2cccc3ncccc23)sc2nc3c(cc12)CN(Cc1ccccc1)CC3
71.5

// next record Oc1c(CN2CCC(N3CCOCC3)CC2)cc(Cc2cc(CN3CCC(N4CCOCC4)CC3)c(O)c3ncccc23)c2cccnc12
15.4

Follow-up item: O=S(=O)(Nc1ccc2ccccc2c1)c1ccc(-c2cnc(C3CC3)o2)cc1
70.4

And for CSc1ccc2c3c(n(C[C@H](O)CO)c(=O)c2c1)-c1ccccc1C3=O ?
85

Lookup CCOC(=O)/C=C1\S/C(=N\Nc2cc(=O)[nH]c3ccc(Br)cc23)N(c2ccccc2)C1=O
58

----------
- System: MDA-MB-231 breast
- ASSAY_TEXT: NCI-60 one-dose screen, 48 h (100 = growth as untreated, 0 = no growth, -100 = all killed)
- CONDITION_LABEL: 10 µM unless noted
About 83,000 compounds went through this panel and 20% of them were active in at least one assay; those are over-represented in the sample as a whole. Active and inactive are the calls of the source. The calls were made as follows: active = growth percent below 10; inactive = the rest.
Below, each entry is listed alongside its reported growth.

I am curious: what growth value has been reported for CC(C)(C)CC(C)(C)Nc1c(-c2c(O)c3ccccc3oc2=O)nc2sc3ccccc3n12 ?
61.9% (inactive)

Continue with Cc1ccc(C2CC(c3cccc(Nc4ccncc4)c3)=Nc3c(N)nc(N)nc3N2)cc1 (centres undefined)
66.1% (inactive)

Moving on to C=C[C@@]1(C)CC(=O)[C@@H](C(C)(C)c2cn(C)c3ccc(Br)cc23)C[C@@H]1O[Si](C)(C)C(C)(C)C
96.6% (inactive)

Subsequent entry: N#Cc1c(-c2ccccc2)nc2c(c(-c3ccc(Cl)cc3)nn2-c2ccccc2)c1-c1ccc([N+](=O)[O-])cc1
102% (inactive)

What do you have for CCN(CC)CCOc1ccc2c(-c3ccccc3)c(-c3ccc(OC)cc3)c(=O)oc2c1 ?
67.3% (inactive)

Then Cc1ccc(O)c(NC(=O)c2cccc(Nc3ccnc(C(F)(F)F)c3)c2)c1 ?
58.9% (inactive)

Input CCCCCCCCCCOC(=O)c1nn(C(C)=O)c2cc(C)c(C)cc12
105% (inactive)

Proceed to O=C(Nc1cccnc1Nc1ccccc1)c1cn(Cc2cccc(Oc3ccccc3)c2)nn1
57.3% (inactive)

And what about the molecule Nc1ncccc1O ?
117% (inactive)

----------
- System: COLO 205 colon
- ASSAY_TEXT: NCI-60 one-dose screen, 48 h (100 = growth as untreated, 0 = no growth, -100 = all killed)
- CONDITION_LABEL: 10 µM unless noted
Compounds without any hit were thinned out: in the full panel of roughly 83,000, 20% have a hit.
Here the recorded growth is given for each entry.
Report only the number, with the unit % understood.

Recorded growth, per entry:
COMPOUND	MEASURED
COc1ccc(N=C2NN=C(c3c[nH]c4ccccc34)CS2)cc1OC	57.9
COc1ccc(C2CC(c3ccccc3)=NN2C(=O)c2cc(OC)c(OC)c(OC)c2)cc1O (stereo not given)	71
O=c1oc2c(cnc3ccccc32)cc1-c1cccc(Cl)c1	118
CC1(C)N=C(N)N=C(N)N1c1ccc(S(=O)(=O)Nc2nccs2)cc1	105
CC(C)(C)c1ccc(S(=O)(=O)Oc2ccc(-c3sc4cc(OS(=O)(=O)c5ccc(C(C)(C)C)cc5)ccc4c3C(=O)c3ccc(OCCN4CCCCC4)cc3)cc2)cc1	101

Name the reported growth value associated with the compound COc1ccc(-c2cc(-c3cccnc3)nc3sc4c(N)c(C(C)=O)c(-c5ccccc5)nc4c23)cc1OC
94.8

Now consider CNC(=O)c1cc(Oc2ccc3c(c2)sc2nc(-c4cc(C(F)(F)F)cc(C(F)(F)F)c4)cn23)ccn1 .
55.3

Entry CCn1cc(C(=O)O)c(=O)c2cc(F)c(N3CCN(CC(=O)Nc4ccccc4)C(C)C3)c(F)c21 (stereo not given) please
106

Then CCN(CCNc1ccc(C)c2sc3cc(Cl)ccc3c(=O)c12)CC(C)(C)O ?
21.4

Also Oc1c(I)cc(I)cc1CN(Cc1ccccn1)Cc1ccccn1 ?
16

----------
- Test system: RXF 393 renal
- ASSAY_TEXT: NCI-60 one-dose screen, 48 h (100 = growth as untreated, 0 = no growth, -100 = all killed)
- CONDITION_LABEL: 10 µM unless noted
Compounds without any hit were thinned out: in the full panel of roughly 83,000, 20% have a hit.
METRIC_NAME: growth (%)
Kindly answer with a numeric value in %, unit omitted.

Example entries begin here.
COMPOUND	TARGET_DESC	UNIT_SYMBOL	growth
COC(=O)c1ccc2c(c1)c1c(C)c3cnccc3c(C)c1n2C	RXF 393 renal	%	-76.1
COc1ccc2c(c1)c(-c1nc(-c3ccc4ccccc4c3)cs1)cn2C	RXF 393 renal	%	69.1
CCOC(=O)CC1CSC(N/N=C/c2ccc(F)c(Br)c2)=N1 (centres undefined)	RXF 393 renal	%	111
Brc1ccc(Nc2nc(Nc3cnc4ccccc4c3)c3[nH]cnc3n2)cc1	RXF 393 renal	%	75.8
CC/C(=C(\c1ccc(Cl)cc1)c1ccc(OCCN2CCCCC2)cc1)c1ccc(O)cc1	RXF 393 renal	%	-6.93
COC12C=C/C(=C(/C(=O)OCc3cncnc3)C(=O)CCCCCCCCC3(OC)C=C/C(=C(/C(=O)OCc4cncnc4)C(=O)CCCCCCCC1)O3)O2	RXF 393 renal	%	-74.2

Could you tell me which growth is on file for C=C1C(=O)O[C@H]2[C@H]1CC/C(COC(=O)/C=C\C(=O)NCc1ccc(Cn3c(=O)sn(CCCCl)c3=O)cc1)=C\CC[C@@]1(C)O[C@@H]21 ?
86.9

Next: C=C(C)[C@@H]1CC[C@]2(COC3CCCCO3)CC[C@]3(C)[C@H](CC[C@@H]4[C@@]5(C)C=C(C=O)C(=O)C(C)(C)[C@@H]5CC[C@]43C)[C@@H]12 (some centres undefined)
-85.7

Queued: C/C(Cc1ccc(Cl)cc1)=C(\c1ccc(OCCN2CCCCCC2)cc1)c1ccc(OC(=O)c2ccccc2)cc1
22

----------
- System: SW-620 colon
- ASSAY_TEXT: NCI-60 one-dose screen, 48 h (100 = growth as untreated, 0 = no growth, -100 = all killed)
- CONDITION_LABEL: 10 µM unless noted
This is part of a sample that, as a whole, favours compounds with a hit. Of some 83,000 tested, about 20% had one in any assay.
METRIC_NAME: growth (%)
Your answer is read as %, so omit the unit and give the number.

COMPOUND	growth / %
C=CC(=O)Nc1cccc(Oc2nccc(Nc3nnc(-c4ccc(Br)cc4)s3)n2)c1	96
O=C(c1ccc(Br)cc1)C(Br)C(c1ccc(Cl)cc1)C(c1ccccc1)[N+](=O)[O-] (centres undefined)	96.4

Can you look up the measured growth of C=C1C(=O)O[C@H]2[C@H]1CC/C(CNC(=O)Cc1c[nH]c3ccccc13)=C\CC[C@@]1(C)O[C@@H]21 for me?
-20.4

Same read-out for c1cc(OCCN2CCCC2)ccc1CNc1ccc2nc(CCC3CCCCC3)[nH]c2c1 ?
8.87

Further, for Clc1cccc(C2Cc3cnccc3-c3[nH]c4ccncc4c32)c1 (centres undefined) ?
44.7

Also Nc1c(Cl)cc(/C=C2\C=Cc3ccccc32)cc1Cl ?
111

And O=c1oc2c(cc1-c1ccccc1)c[n+]([O-])c1ccccc21 ?
103
